Taken from ChEMBL document CHEMBL1134430.

System: Candida albicans
procedure_details: Minimum inhibitory concentration against Candida albicans FP633 strain
Type: functional
metric: MIC (µg/mL)

compound_smiles	assay_result
CCCCCCCCCCCCC[C@@H]1CC(=O)N[C@H]([C@@H](C)O)C(=O)N[C@H](C)C(=O)N[C@@H](Cc2ccc(O)cc2)C(=O)N[C@@H](C(C)C)C(=O)N2C[C@H](O)C[C@H]2C(=O)N[C@H]([C@@H](C)O)C(=O)N[C@@H]([C@@H](C)O)C(=O)N2CC[C@H](O)[C@H]2C(=O)N[C@@H]([C@H](O)CC(N)=O)C(=O)NCC(=O)N[C@H]([C@@H](C)O)C(=O)N[C@@H](CCCNC(=O)[C@@H](N)CCCN)C(=O)O1.Cl	0.39

====

Organism: Mus musculus
procedure_details: Hemolytic ability to hemolyze ICR mouse RBCs in microtiter red blood cell hemolysis assay
Format: functional
Design: concentration or dose not given beside the values
Recorded measurements of Hemolysis, one per entry

compound_smiles	Hemolysis, %
CCCCCCCCCCCCC[C@@H]1CC(=O)N[C@H]([C@@H](C)O)C(=O)N[C@H](C)C(=O)N[C@@H](Cc2ccc(O)cc2)C(=O)N[C@@H](C(C)C)C(=O)N2C[C@H](O)C[C@H]2C(=O)N[C@H]([C@@H](C)O)C(=O)N[C@@H]([C@@H](C)O)C(=O)N2CC[C@H](O)[C@H]2C(=O)N[C@@H]([C@H](O)CC(N)=O)C(=O)NCC(=O)N[C@H]([C@@H](C)O)C(=O)N[C@@H](CCCNC(=O)CN)C(=O)O1.Cl	67
CCCCCCCCCCCCC[C@@H]1CC(=O)N[C@H]([C@@H](C)O)C(=O)N[C@H](C)C(=O)N[C@@H](Cc2ccc(O)cc2)C(=O)N[C@@H](C(C)C)C(=O)N2C[C@H](O)C[C@H]2C(=O)N[C@H]([C@@H](C)O)C(=O)N[C@@H]([C@@H](C)O)C(=O)N2CC[C@H](O)[C@H]2C(=O)N[C@@H]([C@H](O)CC(N)=O)C(=O)NCC(=O)N[C@H]([C@@H](C)O)C(=O)N[C@@H](CCCNC(=O)[C@@H](N)CCCN)C(=O)O1.Cl	20

====

Test system: Candida albicans
procedure_details: Minimum inhibitory concentration against Candida albicans FP633 strain
Assay type: functional
Recorded measurements of MIC, one per entry
metric: MIC (mg/L)

compound_smiles	metric	assay_result
CCCCCCCCCCCCC[C@@H]1CC(=O)N[C@H]([C@@H](C)O)C(=O)N[C@H](C)C(=O)N[C@@H](Cc2ccc(O)cc2)C(=O)N[C@@H](C(C)C)C(=O)N2C[C@H](O)C[C@H]2C(=O)N[C@H]([C@@H](C)O)C(=O)N[C@@H]([C@@H](C)O)C(=O)N2CC[C@H](O)[C@H]2C(=O)N[C@@H]([C@H](O)CC(N)=O)C(=O)NCC(=O)N[C@H]([C@@H](C)O)C(=O)N[C@@H](CCCNC(=O)CN)C(=O)O1.Cl	MIC	0.39
CCCCCCCCCCCCC[C@@H]1CC(=O)N[C@H]([C@@H](C)O)C(=O)N[C@H](C)C(=O)N[C@@H](Cc2ccc(O)cc2)C(=O)N[C@@H](C(C)C)C(=O)N2C[C@H](O)C[C@H]2C(=O)N[C@H]([C@@H](C)O)C(=O)N[C@@H]([C@@H](C)O)C(=O)N2CC[C@H](O)[C@H]2C(=O)N[C@@H]([C@H](O)CC(N)=O)C(=O)NCC(=O)N[C@H]([C@@H](C)O)C(=O)N[C@@H](CCCNC(=O)CCCCN)C(=O)O1.Cl	MIC	0.39
